- assay_target: Voltage-dependent T-type calcium channel subunit alpha-1H (Homo sapiens, UniProt O95180);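 also: channel activity triggered by adding a high calcium stimulation buffer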
- Type: functional
Calls of active or inactive are those of the source.
measurement_kind: EC50

O=C(CN1C(=O)C2CC=CCC2C1=O)Nc1nnc(SCc2ccc(Cl)cc2)s1 (stereo not given)	5350 nM (active)
COc1ccc(-c2nnc(N3CCCCC3)c3ccccc23)cc1	11300 nM (active)
O=C(Nc1ccc(Cl)cc1)N1CCc2[nH]c3ccccc3c2C1	802 nM (active)

Find the measured EC50 of Cc1ccc(-c2noc(CSc3nnnn3C3CCCCC3)n2)cc1 with Voltage-dependent T-type calcium channel subunit alpha-1H (Homo sapiens, UniProt O95180) as test system.
1950 nM (active)

Find the measured EC50 of CCC(C(=O)Nc1cccc(C(F)(F)F)c1)c1ccccc1 (stereo not given) with Voltage-dependent T-type calcium channel subunit alpha-1H (Homo sapiens, UniProt O95180) as test system.
2890 nM (active)

----------
- assay_info: NIH-3T3 fibroblast cytotoxicity, dose response, cytotoxicity control, cell-based, fluorescence, Alamar Blue, secondary assay (AID 2327);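 also: NIH-3T3 mouse fibroblasts cultured with fluconazole at 8 µg/mL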
- Format: functional
Active and inactive are the calls of the source.
Listed compounds paired with reported EC50

Example compounds with recorded EC50:
O=C(NNC(=S)NC(=O)C12CC3CC(CC(C3)C1)C2)c1ccncc1	26.4 µM (active)
O=C(/C=C/c1ccco1)Nc1cccc(-c2nc3ccccc3[nH]2)c1	> 150 µM (inactive)
CC[n+]1cc(C)ccc1C=Cc1ccc(N(C)C)cc1	58.6 µM (active)
OC(CNCC1CCCO1)Cn1c2ccc(Br)cc2c2cc(Br)ccc21 (configuration not stated)	9.05 µM (inconclusive)
Cc1ccc(NC(=O)CSc2nnc([C@@H](N)Cc3c[nH]c4ccccc34)o2)c(C)c1	> 150 µM (inactive)
CCCCCc1ccc(OCCCC[n+]2ccccc2)c(CCCCC)c1	> 160 µM (inactive)

Field: next compound
Please report the measured EC50 for Cc1cc(C)c(-c2cc(NC(=O)COC(=O)c3ccc(C#N)cc3)n(-c3ccccc3)n2)cc1C
> 150 µM (inactive)

----------
Listed compounds paired with reported IC50
- assay_target: Induced myeloid leukemia cell differentiation protein Mcl-1 (Homo sapiens, UniProt Q07820)
- Sequence (Q07820 whole entry): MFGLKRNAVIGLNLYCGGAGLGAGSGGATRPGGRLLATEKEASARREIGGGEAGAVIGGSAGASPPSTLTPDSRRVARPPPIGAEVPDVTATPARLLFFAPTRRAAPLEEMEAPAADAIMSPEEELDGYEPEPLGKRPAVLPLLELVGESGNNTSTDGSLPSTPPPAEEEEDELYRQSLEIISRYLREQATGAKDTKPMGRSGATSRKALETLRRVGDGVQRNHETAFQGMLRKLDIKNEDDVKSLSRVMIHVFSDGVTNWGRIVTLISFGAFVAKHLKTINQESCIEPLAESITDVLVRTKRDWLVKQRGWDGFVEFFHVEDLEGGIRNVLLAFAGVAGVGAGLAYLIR
- Format: functional
Active and inactive are the calls of the source.

Find the measured IC50 of O=C(CSc1ccsc1[N+](=O)[O-])N1CCN(c2ccc(Cl)cc2)CC1 with Induced myeloid leukemia cell differentiation protein Mcl-1 (Homo sapiens, UniProt Q07820) as test system.
5.8 µM (active)

----------
Data export: AC50 values recorded with Cytochrome P450 2C9 (Homo sapiens, UniProt P11712).
Sequence (P11712 whole entry): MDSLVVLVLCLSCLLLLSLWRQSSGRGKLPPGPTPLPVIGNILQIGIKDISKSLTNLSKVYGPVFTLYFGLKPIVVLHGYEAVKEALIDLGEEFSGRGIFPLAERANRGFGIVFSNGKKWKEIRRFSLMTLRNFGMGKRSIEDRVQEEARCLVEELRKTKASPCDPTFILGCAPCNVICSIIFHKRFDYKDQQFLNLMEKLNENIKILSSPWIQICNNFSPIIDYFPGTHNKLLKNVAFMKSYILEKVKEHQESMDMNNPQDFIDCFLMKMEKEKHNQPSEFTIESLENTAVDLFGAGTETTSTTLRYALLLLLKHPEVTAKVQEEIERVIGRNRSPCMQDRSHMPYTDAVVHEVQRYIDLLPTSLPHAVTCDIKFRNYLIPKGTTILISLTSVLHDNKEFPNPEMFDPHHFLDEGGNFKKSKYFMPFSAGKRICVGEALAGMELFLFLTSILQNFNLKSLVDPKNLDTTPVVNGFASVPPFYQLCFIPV

Example compounds with recorded AC50:
O=C(Oc1ccccc1)N1CCC[C@@]2(CCN(Cc3ccccc3)C2)C1	20 µM (inconclusive)
CCOc1ccccc1C1C(C#N)=C(N)Oc2[nH]nc(CC)c21 (stereo not given)	17.8 µM (inconclusive)
C[C@@H]1Oc2ccc(C(=O)C[C@@H](C(=O)O)c3ccc4c(c3)OCO4)cc2O1	6.31 µM (inconclusive)

Find the measured AC50 of CN1CCN(c2ncc3nc(CCc4ccccc4)c(=O)n(Cc4ccc(F)cc4)c3n2)CC1 with Cytochrome P450 2C9 (Homo sapiens, UniProt P11712) as test system.
12.6 µM (inconclusive)

Find the measured AC50 of O=C(Nc1ccc(Cl)cc1)N1CCc2[nH]c3ccccc3c2C1 with Cytochrome P450 2C9 (Homo sapiens, UniProt P11712) as test system.
3.98 µM (inconclusive)

Find the measured AC50 of CCCN(/C=N/c1sc2c(c1C#N)CCCCC2)CCC with Cytochrome P450 2C9 (Homo sapiens, UniProt P11712) as test system.
12.6 µM (inconclusive)

Find the measured AC50 of Cc1ccc(C)c(CN2C(=O)C3CCCN3c3ccc(S(=O)(=O)N4CCOCC4)cc32)c1 (stereo not given) with Cytochrome P450 2C9 (Homo sapiens, UniProt P11712) as test system.
14.1 µM (inconclusive)

Find the measured AC50 of C[C@@H]1[C@H]2C=C[C@@H]1[C@@H](c1c3ccc(=O)c(O)c-3oc3c(O)c(O)ccc13)[C@@H]2C(=O)O with Cytochrome P450 2C9 (Homo sapiens, UniProt P11712) as test system.
7.94 µM (inconclusive)

Find the measured AC50 of COc1ccc(CCNC(=O)c2nnc(O)c3ccccc23)cc1 with Cytochrome P450 2C9 (Homo sapiens, UniProt P11712) as test system.
3.16 µM (inconclusive)

Find the measured AC50 of CC(C)c1ccc(C(O)(C(=O)O)c2ccc(C(C)C)cc2)cc1 with Cytochrome P450 2C9 (Homo sapiens, UniProt P11712) as test system.
3.98 µM (inconclusive)

----------
- assay_target: Heat shock factor protein 1 (Mus musculus, UniProt P38532)
- Sequence (P38532 whole entry): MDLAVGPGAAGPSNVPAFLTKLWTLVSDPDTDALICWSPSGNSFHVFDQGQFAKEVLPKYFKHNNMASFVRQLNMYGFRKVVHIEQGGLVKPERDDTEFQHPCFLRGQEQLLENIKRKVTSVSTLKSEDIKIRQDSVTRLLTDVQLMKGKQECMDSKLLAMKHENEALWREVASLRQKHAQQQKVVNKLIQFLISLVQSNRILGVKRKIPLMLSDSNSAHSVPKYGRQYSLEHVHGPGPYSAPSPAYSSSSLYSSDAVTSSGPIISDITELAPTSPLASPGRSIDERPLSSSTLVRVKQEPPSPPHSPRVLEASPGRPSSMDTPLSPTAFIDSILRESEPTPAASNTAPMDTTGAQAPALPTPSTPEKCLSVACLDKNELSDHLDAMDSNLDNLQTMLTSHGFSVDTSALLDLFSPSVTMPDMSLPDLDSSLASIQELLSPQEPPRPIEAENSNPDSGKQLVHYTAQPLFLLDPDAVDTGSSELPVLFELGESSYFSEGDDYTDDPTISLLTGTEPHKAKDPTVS
- assay_info: inhibition of MG132-induced HSE-luciferase signal, confirmation, cell-based, NIH3T3, luminescence, dose retest (AID 2382);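 also: NIH3T3 fibroblasts with HSF1-driven luciferase reporter stressed by proteasome inhibitor MG132; luminescence from HSF1-driven luciferase expression after 8 hours of MG132 stress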
- Type: functional
Active and inactive are the calls of the source.
measurement_kind: EC50

CCc1ccccc1NC(=O)COc1cccc2ccc(C)nc12	> 195 µM (not active)

Please report the measured EC50 for COc1ccc(C(=O)c2c(C(F)(F)F)oc3c2C(=O)c2ccccc2C3=O)cc1
2.67 µM (active)

----------
- assay_target: Fatty acid synthase (Homo sapiens)
- Sequence (P49327 whole entry, the tested form may be a part): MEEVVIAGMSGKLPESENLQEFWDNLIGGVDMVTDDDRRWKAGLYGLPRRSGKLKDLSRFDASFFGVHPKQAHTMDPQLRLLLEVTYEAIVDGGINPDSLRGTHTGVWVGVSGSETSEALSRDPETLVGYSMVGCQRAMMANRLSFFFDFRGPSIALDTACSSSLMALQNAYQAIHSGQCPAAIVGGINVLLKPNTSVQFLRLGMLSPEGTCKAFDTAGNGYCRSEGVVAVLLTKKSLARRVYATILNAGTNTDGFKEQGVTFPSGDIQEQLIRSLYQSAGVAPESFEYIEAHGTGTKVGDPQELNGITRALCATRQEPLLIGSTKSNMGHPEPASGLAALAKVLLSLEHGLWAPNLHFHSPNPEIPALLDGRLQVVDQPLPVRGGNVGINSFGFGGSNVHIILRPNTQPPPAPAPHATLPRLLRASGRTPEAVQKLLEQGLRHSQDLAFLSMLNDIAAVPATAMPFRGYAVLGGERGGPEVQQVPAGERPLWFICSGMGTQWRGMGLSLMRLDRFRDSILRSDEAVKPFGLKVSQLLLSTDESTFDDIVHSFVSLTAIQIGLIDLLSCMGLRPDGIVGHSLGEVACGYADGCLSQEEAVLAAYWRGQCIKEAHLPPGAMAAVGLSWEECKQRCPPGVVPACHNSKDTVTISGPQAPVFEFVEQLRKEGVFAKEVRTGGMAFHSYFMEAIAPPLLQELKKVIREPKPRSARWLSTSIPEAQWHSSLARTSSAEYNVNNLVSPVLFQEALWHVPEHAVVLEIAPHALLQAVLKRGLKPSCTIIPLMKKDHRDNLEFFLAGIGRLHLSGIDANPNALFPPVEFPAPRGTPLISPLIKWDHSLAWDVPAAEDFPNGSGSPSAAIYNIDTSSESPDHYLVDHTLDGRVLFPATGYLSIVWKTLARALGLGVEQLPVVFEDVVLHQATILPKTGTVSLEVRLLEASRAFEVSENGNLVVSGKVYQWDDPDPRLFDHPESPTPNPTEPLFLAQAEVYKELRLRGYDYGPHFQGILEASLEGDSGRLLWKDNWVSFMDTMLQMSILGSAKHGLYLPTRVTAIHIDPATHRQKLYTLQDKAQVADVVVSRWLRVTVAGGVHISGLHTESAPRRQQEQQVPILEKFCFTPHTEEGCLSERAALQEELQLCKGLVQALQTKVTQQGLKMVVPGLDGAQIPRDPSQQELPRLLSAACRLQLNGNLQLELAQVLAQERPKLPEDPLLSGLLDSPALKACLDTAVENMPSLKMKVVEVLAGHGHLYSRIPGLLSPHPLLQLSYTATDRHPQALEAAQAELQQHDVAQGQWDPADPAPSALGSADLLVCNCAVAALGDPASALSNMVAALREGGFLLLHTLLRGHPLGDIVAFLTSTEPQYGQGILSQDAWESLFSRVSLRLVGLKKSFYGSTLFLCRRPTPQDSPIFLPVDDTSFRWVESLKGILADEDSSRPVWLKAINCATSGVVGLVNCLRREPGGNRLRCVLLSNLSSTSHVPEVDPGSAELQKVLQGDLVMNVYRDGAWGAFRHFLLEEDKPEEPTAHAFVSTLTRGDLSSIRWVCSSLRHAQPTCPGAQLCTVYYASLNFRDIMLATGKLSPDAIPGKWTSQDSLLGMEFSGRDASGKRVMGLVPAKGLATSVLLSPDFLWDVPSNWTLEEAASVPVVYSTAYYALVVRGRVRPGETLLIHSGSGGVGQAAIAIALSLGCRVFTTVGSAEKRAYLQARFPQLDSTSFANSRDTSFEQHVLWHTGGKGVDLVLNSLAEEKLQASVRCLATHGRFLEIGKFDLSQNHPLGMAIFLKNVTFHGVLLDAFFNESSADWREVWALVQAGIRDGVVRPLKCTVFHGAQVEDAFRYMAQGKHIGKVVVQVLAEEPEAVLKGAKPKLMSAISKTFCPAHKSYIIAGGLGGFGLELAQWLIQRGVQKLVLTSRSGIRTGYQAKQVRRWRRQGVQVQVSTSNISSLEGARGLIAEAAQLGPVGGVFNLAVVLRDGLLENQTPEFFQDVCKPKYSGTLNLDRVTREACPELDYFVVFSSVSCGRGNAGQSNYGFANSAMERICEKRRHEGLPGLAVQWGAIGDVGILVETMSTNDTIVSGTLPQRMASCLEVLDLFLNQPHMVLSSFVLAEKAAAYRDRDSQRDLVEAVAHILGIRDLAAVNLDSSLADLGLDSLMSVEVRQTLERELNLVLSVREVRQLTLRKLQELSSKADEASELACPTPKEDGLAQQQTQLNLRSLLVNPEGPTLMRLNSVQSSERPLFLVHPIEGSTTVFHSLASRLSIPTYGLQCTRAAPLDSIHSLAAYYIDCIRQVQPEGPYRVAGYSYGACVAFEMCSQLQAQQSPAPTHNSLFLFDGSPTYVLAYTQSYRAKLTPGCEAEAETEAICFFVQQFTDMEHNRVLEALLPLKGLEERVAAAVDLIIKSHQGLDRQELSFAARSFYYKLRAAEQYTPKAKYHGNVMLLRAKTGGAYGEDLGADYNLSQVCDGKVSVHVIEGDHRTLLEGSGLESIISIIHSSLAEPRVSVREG
- assay_info: FAS thioesterase domain inhibitors, dose response, biochemical, kinetic fluorescence intensity (AID 624326);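 also: rate of fluorescence rise from hydrolysis of a fluorogenic O-methyl fluorescein ester substrate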
- Type: functional
Activity calls are given as the source filed them.
Outcome field: choose from 1.0 for active, 0.0 for inactive

Worked examples follow.
O=C(Nc1ccc(Cc2ccncc2)cc1)c1ccc(Cl)c([N+](=O)[O-])c1	1.0
O=C(N/N=C/c1coc2ccc(Cl)cc2c1=O)c1ccc(O)cc1	1.0
COc1ccc(NC(=O)CN(c2ccc([N+](=O)[O-])cc2)S(=O)(=O)c2ccccc2)c(OC)c1	1.0
Cc1c(Br)c([N+](=O)[O-])nn1CC(=O)Nc1ccc(C(C)C)cc1	1.0
O=[N+]([O-])c1ccc(SNc2ccccc2)c([N+](=O)[O-])c1	1.0
O=C(NCCCc1ccccc1)c1ccc([N+](=O)[O-])cc1Cl	1.0
COc1ccccc1NC(=O)c1ccccc1S(=O)(=O)c1ccc([N+](=O)[O-])cc1	1.0
O=C(Nc1ccc(Cl)cc1)c1csc(-c2ccccc2)n1	1.0
CCCCn1c(CN2CCN(c3ccccc3)CC2)nc2c1c(=O)n(C)c(=O)n2C	0.0

Answer briefly: the call reported for Cc1cccc(NC(=O)c2cc([N+](=O)[O-])ccc2N2CCN(C)CC2)c1 in this assay.
1.0

----------
Data export: AC50 values recorded with UniProtKB P10635.
Sequence (P10635 whole entry): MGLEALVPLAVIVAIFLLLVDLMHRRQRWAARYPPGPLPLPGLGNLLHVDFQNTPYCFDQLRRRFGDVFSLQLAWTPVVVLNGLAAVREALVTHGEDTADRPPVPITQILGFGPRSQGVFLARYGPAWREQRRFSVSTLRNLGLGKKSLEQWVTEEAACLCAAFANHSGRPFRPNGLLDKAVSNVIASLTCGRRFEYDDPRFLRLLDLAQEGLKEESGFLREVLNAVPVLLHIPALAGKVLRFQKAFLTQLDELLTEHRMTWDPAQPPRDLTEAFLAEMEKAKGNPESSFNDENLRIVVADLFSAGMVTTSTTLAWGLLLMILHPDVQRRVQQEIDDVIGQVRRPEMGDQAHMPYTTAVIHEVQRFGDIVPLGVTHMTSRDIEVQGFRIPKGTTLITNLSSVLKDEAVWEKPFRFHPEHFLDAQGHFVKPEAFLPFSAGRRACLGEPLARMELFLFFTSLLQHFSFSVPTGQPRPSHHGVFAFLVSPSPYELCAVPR

Example molecules with recorded AC50:
COc1cccc(N2C(=O)C(CC(=O)Nc3ccccc3)N(C3CCCCC3)C2=O)c1 (stereo unspecified)	17.8 µM (inconclusive)
CC(=O)N1CCC[C@@]2(CCN(Cc3ccc(C#N)cc3)C2)C1	12.6 µM (inconclusive)
CC(=O)NCCNc1ncncc1-c1ccccc1CN(C)C	39.8 µM (inconclusive)
Cc1ccc(Sc2nc(C)cc(C)c2S(C)(=O)=O)cc1	17.8 µM (inconclusive)

Please report the measured AC50 for COc1ccc(O[C@H]2C=C[C@@H](c3ccccc3)O[C@H]2COC(=O)N2CCCCC2)cc1
3.98 µM (inconclusive)

Please report the measured AC50 for CCCN(/C=N/c1sc2c(c1C#N)CCCCC2)CCC
15.8 µM (inconclusive)

----------
- assay_target: Heat shock factor protein 1 (Mus musculus, UniProt P38532)
- assay_info: HSF1 potentiators in luciferase reporter cells, confirmation, cell-based, NIH3T3, luminescence, dose retest (AID 435004);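 also: stress induced by proteasome inhibitor MG132 added 30 min after compound; luciferase reporter driven by HSF1 response element in NIH3T3 cells; actives raise luminescence as potentiators of the MG132 stress response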
- Type: functional
Active and inactive are the calls of the source.
Outcome field: choose from Yes = active, No = inactive

Worked examples follow.
COc1ccc(-c2c(C)nn3c(Cl)c(C)c(C)nc23)cc1	Yes
CCOC(=O)Cn1c(S(=O)(=O)Cc2ccc(F)cc2)nc(-c2ccccc2)c1-c1ccccc1	No
Cn1ccc(C(=O)N/N=C/c2ccncc2)n1	No
CC1(C)Cc2c(C#N)c(N)n(-c3ccccc3)c(=S)c2CO1	No
CCC(C)Sc1nc2c3ccccc3nc-2c(O)n1C (stereo unspecified)	No

Field: next compound
Answer briefly: the call reported for O=C(Nc1ccc2c(c1)C(=O)OC2)c1ccc(Cl)cc1 in this assay.
No

----------
- assay_target: Genome polyprotein (dengue virus type 2)
- assay_info: Dengue-2 NS5 methyltransferase inhibitors, primary screen, biochemical, confirmation dose response (AID 588689)
- Assay type: functional
Activity calls are given as the source filed them.
measurement_kind: IC50

Please report the measured IC50 for Cc1ccc(S(=O)(=O)N2[C@@H](c3cccc(Cl)c3)C(C(=O)O)=CC[C@H]2c2ccc(C(C)C)cc2)cc1
36.3 µM (active)

Please report the measured IC50 for COC(=O)CCC(=O)OC1(C)C(=O)C2=CN(CC3CC3)C(c3ccc(OC)cc3)=CC2=C(Br)C1=O (centres undefined)
30.5 µM (active)

Please report the measured IC50 for O=C(O)c1ccccc1-c1ccccc1C(=O)Nc1ccc(-c2nc3cc(Cl)ccc3o2)cc1
54 µM (active)

Please report the measured IC50 for COC/C=C/C1=CC2=CC(=O)C(C)(OC(=O)c3cnc4ccccc4n3)C(=O)C2=CN1C1CC1 (centres undefined)
> 100 µM (active)
